B1: library; a variant is named by its letters at N, in order (parent)
chain: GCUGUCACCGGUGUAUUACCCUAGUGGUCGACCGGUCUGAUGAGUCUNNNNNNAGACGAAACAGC

variants of: B1; assay: normalized RNA/DNA level without ligand (relative to sTRSVctl = 100) (log10 (% of sTRSVctl)); ligand: hypoxanthine (xanthine aptamer); higher = less ribozyme self-cleavage, higher mRNA level; conditions: HEK293T, reporter: mCherry (pCS4076), ligand present: no
measured endpoint: normalized RNA/DNA level without ligand (log10)
Just the number.

Examples with their reported normalized RNA/DNA level without ligand (log10) follow.
INSERT INTO assay_data (mutant, number) VALUES
  ('AAAGAC', 1.82),
  ('AGUCGU', 1.68),
  ('CACUGU', 1.97),
  ('AUCCUA', 1.9),
  ('UUUGUU', 1.87),
  ('AAGUCC', 1.81);

Provide measured normalized RNA/DNA level without ligand (log10) value, entry: "GAGAAC"
1.63

Provide measured normalized RNA/DNA level without ligand (log10) value, entry: "UGCCCC"
1.9

Provide measured normalized RNA/DNA level without ligand (log10) value, entry: "CGCCUG"
1.9

Provide measured normalized RNA/DNA level without ligand (log10) value, entry: "UGGUAG"
1.55

Provide measured normalized RNA/DNA level without ligand (log10) value, entry: "CCUUCG"
1.88

// provenance: the supplement of paper PMC6757056
